meta.source: PubChem BioAssay AID1117319

Please go through the items and note down their inhibition.
MEASURED_TARGET: Virion infectivity factor (Human immunodeficiency virus type 1 group M subtype B (isolate BH10)) + Virion infectivity factor (Human immunodeficiency virus type 1 group M subtype B (isolate BRU/LAI)) + Virion infectivity factor (Human immunodeficiency virus type 1 group M subtype B (isolate PCV12)) + Virion infectivity factor (Human immunodeficiency virus type 1 group M subtype B (isolate HXB2)) + DNA dC->dU-editing enzyme APOBEC-3G (Homo sapiens) (UniProt P69720+P69721+P69722+P69723+Q9HC16)
PROTOCOL: inhibitors of Vif binding to APOBEC3G peptide, primary screen, biochemical, TR-FRET, GST-Vif 1-94, biotin-A3G peptide, dose response retest (AID 1117319);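 note: Vif residues 1-94 fused to GST binding biotinylated APOBEC3G peptide 110-148; 0% = full assay without inhibitor and 100% = GST in place of GST-Vif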
REPORTED_CONDITIONS: active compounds read high
The campaign covered roughly 260,000 compounds. About 1,500 (0.58%) were called active. Roughly 5% stayed inconclusive and do not appear here. Only a sample is shown. Potency and affinity values are given separately.

Recorded inhibition (compound `CCOc1ccc(/C=C/C2=Cc3c(sc(NC(=O)CSc4n[nH]c(N)n4)c3C#N)C(C)(C)C2)cc1` ): 1.67% (inactive)

Recorded inhibition (compound O=C1CC(c2ccco2)CC(O)=C1C=Nc1ccccc1-c1ccccc1 (stereo unspecified) ): 18.4% (inactive)

Recorded inhibition (compound O=C1CC(c2ccco2)CC(O)=C1C=NCCN1CCN(C(=O)Nc2ccc(Cl)cc2)CC1 (stereo unspecified) ): -5.15% (inactive)

Recorded inhibition (compound `Cc1noc(C)c1COC(=O)c1cnc(Cl)c(Cl)c1` ): 3.39% (inactive)

Recorded inhibition (compound `O=C(CCN1CCC(c2ccc(Cl)s2)=N1)c1ccc(Cl)s1` ): -2.16% (inactive)

Recorded inhibition (compound `S=c1[nH]nc(-c2cc(-c3ccco3)[nH]n2)n1-c1ccccc1` ): 4.55% (inactive)

Recorded inhibition (compound `Cc1cc(Cl)c(S(=O)(=O)NC2CCCC2)cc1OCC(=O)NC1CCCCC1` ): -2.05% (inactive)

Recorded inhibition (compound `Cc1cc(C)nc(NS(=O)(=O)c2ccc(N/C=C/C(=O)c3ccc(Cl)c(Cl)c3)cc2)n1` ): 32.2% (inactive)

Recorded inhibition (compound `COC(=O)CSc1nnc(CNC(=O)c2cccc(C)c2)n1-c1ccccc1OC` ): 6.5% (inactive)

Recorded inhibition (compound `CCN1C(C)=C(C)S/C1=C1\SC(=S)N(N)C1=O` ): 7% (inactive)

Recorded inhibition (compound `Cc1cc(F)ccc1S(=O)(=O)Nc1ccccc1C(=O)Nc1ncn[nH]1` ): -4.68% (inactive)

Recorded inhibition (compound `CCOC(=O)CSc1nnc(CNC(=O)Cc2ccccc2)n1-c1ccccc1OC` ): -6.46% (inactive)

Recorded inhibition (compound `Cc1cc(Cl)c(S(=O)(=O)N2CCCC2)cc1OCC(=O)NC1CCCCC1` ): -1.25% (inactive)

Recorded inhibition (compound `Cc1cc(F)ccc1S(=O)(=O)Nc1ccccc1C(=O)Nc1ccccc1-c1nc2ccccc2[nH]1` ): 16.7% (inactive)

Recorded inhibition (compound `COc1ccccc1-n1c(-c2ccco2)n[nH]c1=S` ): -2.63% (inactive)

Recorded inhibition (compound O=C(NCC1CCCO1)c1ccc2nc(N3CCCCC3)sc2c1 (stereo unspecified) ): 1.36% (inactive)

Recorded inhibition (compound `C/C=C/c1ccc(OCCCn2cncn2)c(OC)c1` ): -2.59% (inactive)

Recorded inhibition (compound `C/C(=N\NC(=O)Cn1ccc(C(F)(F)F)n1)c1ccc2c(c1)OCO2` ): -1.38% (inactive)

Recorded inhibition (compound `Cc1ccccc1CN1C[C@@H]2C[C@@H](c3cn[nH]c3-c3ccc(F)cc3)N3CCC[C@@]23C1=O` ): 6.1% (inactive)

Recorded inhibition (compound `CS(=O)(=O)c1ccc(C(=O)OCC(=O)NC(=O)Cc2ccccc2)cc1` ): -0.73% (inactive)

Recorded inhibition (compound `S=c1[nH]nc(-c2cc(-c3ccco3)[nH]n2)n1-c1cccc2ccccc12` ): 16.8% (inactive)
